Molecular target: Agam\Orco (Anopheles gambiae, UniProt Q7QCC7)
Construct: expressed in transfected cells; host or cells: Xenopus laevis oocytes injected with capped cRNA (plasmid pT7TS, gift of L. Zwiebel)
Assay: cell-based
Type: cell-based
Details: Agam\Orco activated by 30 µM OLC12; read-out: IC50
Experimental: A 2 hr incubation with collagenase B (Roche) was used to remove follicle cells from oocytes. Capped cRNA for Agam\Orco was synthesized using mMessage mMachine kits (Thermo Fisher Scientific). […]
propertyMeasured: pIC50
Answers are plain numbers, as −log10 of the molar value.

Name the recorded pIC50 for Cc1ccc(C(C)C)c(O)c1O [3I6MC, 3-isopropyl-6-methyl catechol] .
4.39

====

molecular target: Agam\Orco (Anopheles gambiae, UniProt Q7QCC7); construct: expressed in transfected cells; host or cells: Xenopus laevis oocytes injected with capped cRNA (plasmid pT7TS, gift of L. Zwiebel); assay: cell-based; format: cell-based; details: Table 1; inhibition of Agam\Orco activated by 30 µM OLC12; mean ± SEM (n = 3–8); read-out: IC50
propertyMeasured: IC50 (µM)
One number for each entry, in µM.

Name the recorded IC50 for Cc1cccc(C(C)(C)C)c1O [BMP, 2-tert-butyl-6-methylphenol] .
48

====

Target: Agam\Orco (Anopheles gambiae)
Construct: expressed in transfected cells; host or cells: Xenopus laevis oocytes injected with capped cRNA (plasmid pT7TS, gift of L. Zwiebel)
Sequence (Q7QCC7 1-478): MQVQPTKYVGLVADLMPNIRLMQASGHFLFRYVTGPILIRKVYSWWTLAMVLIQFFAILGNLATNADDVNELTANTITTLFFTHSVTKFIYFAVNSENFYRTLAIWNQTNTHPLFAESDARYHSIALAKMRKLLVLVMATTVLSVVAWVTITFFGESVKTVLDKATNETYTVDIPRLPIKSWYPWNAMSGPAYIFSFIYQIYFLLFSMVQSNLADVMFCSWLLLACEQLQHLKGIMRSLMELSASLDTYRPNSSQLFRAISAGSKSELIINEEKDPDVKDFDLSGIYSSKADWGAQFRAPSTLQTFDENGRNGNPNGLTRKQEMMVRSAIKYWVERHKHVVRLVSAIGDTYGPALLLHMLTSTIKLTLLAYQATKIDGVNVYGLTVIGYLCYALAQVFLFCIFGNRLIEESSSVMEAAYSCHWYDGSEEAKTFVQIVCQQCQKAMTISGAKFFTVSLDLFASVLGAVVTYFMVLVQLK
Assay: cell-based
Type: cell-based
Settings: read-out: IC50
Counter-ions that a name gives are not always drawn.
propertyMeasured: pIC50
Answers are plain numbers, as −log10 of the molar value.

Name the recorded pIC50 for C=CC(C)(CCC=C(C)C)OC=O (stereo not shown) [LF, linalyl formate] .
3.60

====

target: Agam\Orco (Anopheles gambiae); construct: expressed in transfected cells; host or cells: Xenopus laevis oocytes injected with capped cRNA (plasmid pT7TS, gift of L. Zwiebel); assay: cell-based; assay type: cell-based; conditions: Table S1; training actives; Agam\Orco activated by 30 µM OLC12; mean ± SEM (n = 3-8); read-out: IC50
pIC50: −log10 of the molar value.
Decide using pIC50: a value greater than or equal to 3 is true (1), a smaller one is false (0).

Example entries and their recorded answers appear below.
Quick check: does CC1=NC(C)SC1C (centres unmarked) [2,5-dihydro-2,4,5-trimethylthiazoline] have pIC50 greater than or equal to 3?
false (0)

Let us now turn to O=Cc1ccc2c(c1)OCO2
false (0)

Let us now turn to CC12CCC(CC1)C(C)(C)O2
false (0)

Let us now turn to CCCCc1ccc(NC(=O)CSc2nnc(-c3ccccn3)n2CC)cc1 [OLC15, reference compound]
true (1)

Let us now turn to CC1(C)C(=O)[C@@]2(C)CC[C@H]1C2
false (0)

New cases:
Quick check: does NCCc1c[nH]c2ccccc12 have pIC50 greater than or equal to 3?
true (1)

Let us now turn to c1ccsc1
false (0)

====

Can you tell me pIC50 for the items I'm about to list?
target: Agam\Orco (Anopheles gambiae, UniProt Q7QCC7); construct: expressed in transfected cells; host or cells: Xenopus laevis oocytes injected with capped cRNA (plasmid pT7TS, gift of L. Zwiebel); assay: cell-based; type: cell-based; settings: Table S1; training actives; Agam\Orco activated by 30 µM OLC12; mean ± SEM (n = 3-8); read-out: IC50
Numbers only, as −log10 of the molar value.

A selection of reference data follows.
Name the recorded pIC50 for Cc1ccc(CNC(=O)c2cccs2)cc1 [OX3a, reference compound] .
3.69

Let us now turn to CCCCC1Cc2ccccc2C1=O (stereo not shown) [2-butyl-1-indanone]
3.54

Let us now turn to O=CCCc1ccccc1 [hydrocinnamaldehyde]
3.66

Working through the 4 molecules below one at a time, give pIC50 for each.
1. COc1ccc(OC)cc1 [1,4-dimethoxybenzene]
2. COC(C)=O [methyl acetate]
3. COc1ccccc1 [anisole]
4. CCOC(=O)c1ccccc1 [ethyl benzoate]

1: 2.96; 2: 2.79; 3: 2.93; 4: 3.24

Working through the 3 molecules below one at a time, give pIC50 for each.
1. CCOC(=O)/C=C/c1ccccc1 [ethyl-trans-cinnamate]
2. Cc1cccc(O)c1 [m-cresol]
3. CC(C)=CCC/C(C)=C/C=O [citral]

1: 3.87; 2: 2.89; 3: 3.34

Working through the 3 molecules below one at a time, give pIC50 for each.
1. Cc1ccc(C(C)C)c(O)c1 [thymol]
2. Brc1ccccc1 [bromobenzene]
3. C=C(C)[C@H]1CC=C(C)C(=O)C1 [(S)-carvone]

4.21
2.94
2.89

Working through the 8 molecules below one at a time, give pIC50 for each.
1. O=Cc1ccc(O)cc1 [4-hydroxybenzaldehyde]
2. CC(C=O)=Cc1ccccc1 [α-methyl cinnamaldehyde]
3. CCCCCCC1CCC(=O)O1 (stereo not shown) [γ-decalactone]
4. Cc1ccccc1 [toluene]
5. CC1CCC(C(C)C)C(O)C1 (single isomer, unassigned; (-)) [(-)menthol]
6. CCCC=O [butyraldehyde]
7. CCN(CC)C(=O)c1cccc(C)c1 [DEET, N,N-diethyl-m-toluamide, reference compound]
8. SCCCCCCCCCS [1,9-nonanedithiol]

1: 2.44; 2: 3.73; 3: 3.02; 4: 2.80; 5: 3.36; 6: 2.52; 7: 2.35; 8: 2.80

Working through the 4 molecules below one at a time, give pIC50 for each.
1. CC1CC[C@H](C(C)C)[C@@H](O)C1 (single isomer, unassigned; (+)) [(+)menthol]
2. CC(C)OC(=O)C=Cc1ccccc1 [isopropyl cinnamate]
3. C=CCc1ccc(OC)c(OC)c1 [methyl eugenol]
4. Cc1cc(C)c(NC(=O)c2cccs2)c(C)c1 [OX1L, N-mesityl-2-thiophenecarboxamide, reference compound]

[3.35, 3.82, 3.28, 4.24]

====

target: Agam\Orco (Anopheles gambiae); construct: expressed in transfected cells; host or cells: Xenopus laevis oocytes injected with capped cRNA (plasmid pT7TS, gift of L. Zwiebel); test: cell-based; format: cell-based; details: read-out: inhibition of Agam\Orco (OLC12 response) at 3 mM; 3 mM compound, 30 µM OLC12
propertyMeasured: inhibition at 3000 µM

A selection of reference data follows.
Name the recorded inhibition at 3000 µM for CCCCC/C=C\C/C=C\CCCCCCCC(=O)O [linoleic acid] .
≤ 20%

Let us now turn to CCOC(=O)CC [ethyl propionate]
≤ 20%

Let us now turn to CCC(=O)C(C)=O [2,3-pentanedione]
≤ 20%

Let us now turn to O=C(O)CCCCBr [5-bromovaleric acid]
≤ 20%

Let us now turn to N[C@@H](Cc1ccccc1)C(=O)O [phenylalanine]
≤ 20%

Let us now turn to N[C@@H](Cc1c[nH]c2ccccc12)C(=O)O [tryptophan]
≤ 20%

Working through the 4 molecules below one at a time, give inhibition at 3000 µM for each.
1. Oc1ccccc1O [catechol]
2. CC1=CCC2CC1C2(C)C (stereo not drawn) [α-pinene]
3. Cc1ccnc2ccccc12 [4-methylquinoline]
4. O=C1CCCC1 [cyclopentanone]

1. ≤ 20%
2. ≤ 20%
3. ≤ 20%
4. ≤ 20%

====

Target: Agam\Orco (Anopheles gambiae, UniProt Q7QCC7)
Construct: expressed in transfected cells; host or cells: Xenopus laevis oocytes injected with capped cRNA (plasmid pT7TS, gift of L. Zwiebel)
Sequence (Q7QCC7 1-478): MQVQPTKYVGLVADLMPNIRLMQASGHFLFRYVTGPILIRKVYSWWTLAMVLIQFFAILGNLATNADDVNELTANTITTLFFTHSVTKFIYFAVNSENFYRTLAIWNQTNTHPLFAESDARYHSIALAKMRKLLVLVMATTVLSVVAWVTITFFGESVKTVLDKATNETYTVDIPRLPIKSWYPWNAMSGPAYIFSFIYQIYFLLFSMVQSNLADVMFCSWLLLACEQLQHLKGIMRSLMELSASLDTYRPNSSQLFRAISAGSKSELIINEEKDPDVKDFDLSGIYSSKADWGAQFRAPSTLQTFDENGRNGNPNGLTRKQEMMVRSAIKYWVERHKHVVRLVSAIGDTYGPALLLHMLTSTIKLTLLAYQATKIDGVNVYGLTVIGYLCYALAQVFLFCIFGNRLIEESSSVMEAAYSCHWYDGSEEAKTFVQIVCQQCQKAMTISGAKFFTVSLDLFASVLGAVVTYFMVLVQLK
Test: cell-based
Format: cell-based
Details: 100 µM OLC12; n = 3-9; read-out: IC50 for inhibition of Agam\Orco activation by 100 µM OLC12
propertyMeasured: IC50
Number first, unit second.

Name the recorded IC50 for Cc1cccc(C(C)(C)C)c1O .
137 µM
